Consider the following molecules and their measured IC50 readings.
Molecular target: FIBCD1 ectodomain (Homo sapiens, UniProt Q8N539)
Construct: The V5-His tagged putative ectodomain of FIBCD1, encoding amino acid 54-461, was generated by PCR; made in house; host or cells: HEK293 (Flp-In T-REx), secreted via pSecTag/FRT/V5-His TOPO vector
Sequence (Q8N539 54-461): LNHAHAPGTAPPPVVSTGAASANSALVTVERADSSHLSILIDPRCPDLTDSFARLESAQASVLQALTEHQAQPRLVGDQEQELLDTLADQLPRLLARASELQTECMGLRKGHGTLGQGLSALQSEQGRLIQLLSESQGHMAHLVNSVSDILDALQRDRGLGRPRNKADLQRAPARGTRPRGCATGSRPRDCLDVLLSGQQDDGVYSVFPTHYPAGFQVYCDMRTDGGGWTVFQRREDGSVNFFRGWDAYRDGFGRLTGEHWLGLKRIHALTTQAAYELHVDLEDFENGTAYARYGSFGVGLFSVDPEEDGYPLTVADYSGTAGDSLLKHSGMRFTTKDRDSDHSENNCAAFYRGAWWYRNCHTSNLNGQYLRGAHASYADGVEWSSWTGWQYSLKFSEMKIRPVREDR
Experiment: ELISA inhibition of binding between FIBCD1 ectodomain and acetylated BSA
Details: read-out: I50 of the binding between FIBCD1 and acetylated BSA
Enter your answer as a number in mM; do not include the unit.

Study these solved cases before continuing.
{"columns": ["MOLECULE", "IC50 [mM]"],
 "data": [
  ["CC(=O)N[C@@H](C)C(=O)O", 4],
  ["CC(=O)N[C@H]1[C@H]([C@H](O)[C@H](O)CO)OC(O)(C(=O)O)C[C@@H]1O (some centres unmarked)", 2],
  ["CC(=O)OCC[N+](C)(C)C", 10],
  ["CC(=O)N[C@@H]1C(O)O[C@H](CO)[C@@H](O)[C@@H]1O (some centres unmarked)", 2]
]}

Proceed to the following item.
Short answer for CC(=O)N[C@H]1C(O)O[C@H](CO)[C@@H](O)[C@@H]1O (some centres unmarked) : IC50 was 4

---

Target: FIBCD1 ectodomain (Homo sapiens)
Construct: The V5-His tagged putative ectodomain of FIBCD1, encoding amino acid 54-461, was generated by PCR; made in house; host or cells: HEK293 (Flp-In T-REx), secreted via pSecTag/FRT/V5-His TOPO vector
Test: ELISA inhibition of binding between FIBCD1 ectodomain and acetylated BSA
Conditions: I50 of the best inhibitor divided by I50 of the compound
Text: The ligand selectivity of FIBCD1 was investigated by inhibiting the binding of FIBCD1 ectodomain to acetylated BSA coated microtiter plates (FIG. 2G, Table 1). An ELISA system was used to evaluate the ability of various acetylated and nonacetylated compounds to inhibit the binding between FIBCD1 ectodomain and acetylated BSA (Sigma). […]
# key: entry, value: I50 relative (relative inhibitor potential)
Form rule: numeric answer, no unit written next to it.

{"columns": ["COMPOUND", "VALUE_MEASURED"],
 "data": [
  ["CC(=O)N[C@@H]1[C@@H](O)[C@@H](O)[C@@H](CO)O[C@@H]1O", 0.4],
  ["CC(=O)N[C@H]1[C@H]([C@H](O)[C@H](O)CO)OC(O)(C(=O)O)C[C@@H]1O (some centres unmarked)", 1],
  ["CC(=O)N[C@H]1C(O)O[C@H](CO)[C@@H](O)[C@@H]1O (some centres unmarked)", 0.5],
  ["CC(=O)N[C@@H](C)C(=O)O", 0.5]
]}

Next item in the queue.
Lab entry: FIBCD1 ectodomain (Homo sapiens) assay, compound CC(=O)N[C@@H]1C(O)O[C@H](CO)[C@@H](O)[C@@H]1O (some centres unmarked) , I50 relative (relative inhibitor potential) = 1

src = patent US20120020958A1
